Test system: red blood cells
measurement description: In vitro hemolysis
Format: cell-based
experimental conditions: Table 3; minimum concentration necessary to lyse red blood cells
measured metric: Hemolysis

Record CC1=NN(c2nc3ccc(Cl)cc3s2)C(=O)C1 has red blood cells Hemolysis equal to >800 µM

Record CC(C)c1cc(O)n(-c2nc3ccccc3s2)n1 has red blood cells Hemolysis equal to >800 µM

Record Cc1nn(-c2nc3ccccc3s2)c(O)c1C has red blood cells Hemolysis equal to >800 µM

Record COc1ccc(Nc2cc(C(F)(F)F)ccc2Cl)c(C(=O)O)c1 has red blood cells Hemolysis equal to ~800 µM

Record O=C(O)c1ccccc1Nc1cccc(C(F)(F)F)c1 has red blood cells Hemolysis equal to >800 µM

Record CC1=NN(c2nc3ccccc3s2)C(=O)C1 has red blood cells Hemolysis equal to >800 µM

Cited source: patent US8415393B2
